Target: Solute carrier family 2, facilitated glucose transporter member 9 (Homo sapiens, UniProt Q9NRM0)
Sequence (Q9NRM0 whole entry): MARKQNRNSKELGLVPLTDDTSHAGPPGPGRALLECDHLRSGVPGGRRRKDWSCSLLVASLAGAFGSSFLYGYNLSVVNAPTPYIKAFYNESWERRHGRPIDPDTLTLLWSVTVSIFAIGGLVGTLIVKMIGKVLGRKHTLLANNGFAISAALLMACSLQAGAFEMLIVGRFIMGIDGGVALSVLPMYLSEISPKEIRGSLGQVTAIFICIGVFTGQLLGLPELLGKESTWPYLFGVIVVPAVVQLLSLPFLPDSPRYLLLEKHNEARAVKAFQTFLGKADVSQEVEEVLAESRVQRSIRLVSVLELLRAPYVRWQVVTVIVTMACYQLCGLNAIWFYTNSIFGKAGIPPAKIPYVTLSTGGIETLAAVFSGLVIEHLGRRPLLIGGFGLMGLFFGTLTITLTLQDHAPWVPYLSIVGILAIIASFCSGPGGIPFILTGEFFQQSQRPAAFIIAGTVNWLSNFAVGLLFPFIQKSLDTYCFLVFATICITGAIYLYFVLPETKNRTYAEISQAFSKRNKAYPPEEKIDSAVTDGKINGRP
Assay: Inhibition of GLUT9 (unknown origin) expressed in HEK293T cells assessed as inhibition of uric acid-induced current by whole cell patch clamp technique

[
  {
    "Input Smiles": "N#Cc1ccc(Nc2cnccc2SCc2ccccc2C(=O)[O-])c2ccccc12.[Na+]",
    "IC50 / µM": 9.37
  }
]
